test system: SK-MEL-28 melanoma; test: NCI tumour cell line growth inhibition, 48 h
measurement_type: TGI

compound	test_system	TGI
Cc1ccc2nc(NC(=O)C(=O)C(C#N)c3nc4ccccc4s3)sc2c1 (configuration not stated)	SK-MEL-28 melanoma	> 100 µM
O=[N+]([O-])c1cc(C(F)(F)F)cc([N+](=O)[O-])c1CCl	SK-MEL-28 melanoma	17.9 µM
CC(C)(C)n1cc(-c2ccnc(NCCCNS(=O)(=O)c3ccc(C(F)(F)F)cc3)c2)c(-c2cccc(O)c2)n1	SK-MEL-28 melanoma	3.25 µM
O=c1oc2ccc3ccccc3c2cc1-c1cn2ccccc2n1	SK-MEL-28 melanoma	> 100 µM
CSc1ccc(C(=C=C=C(c2ccc(SC)s2)c2ccc(SC)s2)c2ccc(SC)s2)s1	SK-MEL-28 melanoma	> 10 µM

Record request: TGI value, item CCOC(=O)c1cnc2oc3ccc(O)cc3c2c1C
> 100 µM

Follow-up entry: Cc1csc2c(=O)n(C3OC(CO)C(O)C3O)c(=O)[nH]c12 (configuration not stated)
> 100 µM

Follow-up entry: Cc1cc(=O)[nH]c(-n2[nH]c(C)c(CCO)c2=O)n1
> 100 µM

Follow-up entry: COc1ccc(-c2cn(-c3cc(OC)c(OC)c(OC)c3)c(SCc3ccccc3)n2)cc1OC
> 100 µM

Follow-up entry: C=C1C(=O)O[C@H]2[C@H]1CC/C(COC(=O)NCc1ccc(Cn3c(=O)sn(CCCl)c3=O)cc1)=C\CC[C@@]1(C)O[C@@H]21
3.38 µM

Follow-up entry: COc1ccc2n[se]nc2c1
> 100 µM

Follow-up entry: COC(=O)[C@@H]1CN(C(C)=O)C(=O)N1
> 100 µM

Follow-up entry: Cn1cc(C(=O)NCCC(=N)N)cc1NC(=O)C1=[N+](C)C=C(NC(=O)c2cccc(C(=O)NC3=CC(C(=O)Nc4cc(C(=O)NCCC(=N)N)cn4C)=[N+](C)C3)c2)C1
> 100 µM

Follow-up entry: O=C1c2cc(Cl)ccc2-n2cnnc2C2CSCN12 (configuration not stated)
> 100 µM

Follow-up entry: Cc1cc2c(cc1C)N(C(=O)CCl)CC(=O)N2
14.8 µM

Follow-up entry: O=C([CH-]C(=O)c1ccccc1)c1ccccc1.O=C([CH-]C(=O)c1ccccc1)c1ccccc1.[La+3].[OH-].[OH3+]
57.2 µM

Follow-up entry: COc1ccc(-c2cc(=O)[nH]c3c(OC)c4ccccc4c(OC)c23)cc1
> 100 µM
